Tested on: RAW-Dual
method: NF-kB SEAP reporter activity, fold change vs agonist alone; higher = enhanced NF-kB activity
condition: library stock concentration (final ~1000-fold dilution): 10 mM water; cytotoxicity flag (confluency mask): not cytotoxic; agonist: MPLA (TLR4) […]
Whole data set: some 2,900 compounds, median “NF-kB SEAP reporter activity, fold change vs agonist alone” near 0.99, cut for the highest 2% near 2.6. The list comes from a sample in which the highest values are over-represented; it also holds close analogues and randomly drawn compounds.
As shown below, each of these molecules has a reported NF-kB SEAP reporter activity value.
# respond with the number and nothing more

Nc1ccn(CC(CO)OCP(=O)(O)O)c(=O)n1 (configuration not stated)    1.04

INPUT: Need NF-kB SEAP reporter activity of CN1C2CCCC1CC(NC(=O)c1nn(C)c3ccccc13)C2.Cl (configuration not stated) , thanks.
OUTPUT: 1

INPUT: Need NF-kB SEAP reporter activity of N=C(N)NCCCCC1NC(=O)CCSSCC(C(N)=O)NC(=O)C2CCCN2C(=O)C(Cc2c[nH]c3ccccc23)NC(=O)C(CC(=O)O)NC(=O)CNC1=O (configuration not stated) , thanks.
OUTPUT: 1.11

----------
Test system: RAW-Dual
method: NF-kB SEAP reporter activity, fold change vs agonist alone; cytotoxicity flag (confluency mask): cytotoxic (confluency <70% of control); higher = enhanced NF-kB activity
condition: agonist: ODN 1826 (TLR9) 0.5 ug/mL
Over roughly 2,900 compounds, “NF-kB SEAP reporter activity, fold change vs agonist alone” has its median near 0.99; the highest 2% begin near 2.6. The list comes from a sample in which the highest values are over-represented; it also holds close analogues and randomly drawn compounds.
measurement.label: NF-kB SEAP reporter activity
# respond with the number and nothing more

COc1cc(OCc2cccc(-c3ccccc3)c2C)cc(OC)c1CN1CCCCC1C(=O)O (stereo unspecified) (library stock concentration (final ~1000-fold dilution): 10 mM)    0.794
O=C(CCCCCN1C(=O)c2cccc3cccc(c23)C1=O)NO (library stock concentration (final ~1000-fold dilution): 10 mM)    2.57
COc1ccc(C(=O)C=Cc2cc(OC)c(OC)c(OC)c2)cc1OC (library stock concentration (final ~1000-fold dilution): 20 mM)    0.215

INPUT: Need NF-kB SEAP reporter activity of O=C(N/N=C/c1ccc([N+](=O)[O-])o1)c1ccc(O)cc1 (library stock concentration (final ~1000-fold dilution): 10 mM) , thanks.
OUTPUT: 1.64

INPUT: Need NF-kB SEAP reporter activity of COc1cccc2c1C(=O)c1c(O)c3c(c(O)c1C2=O)CC(O)(C(C)=O)CC3OC1CC(N)C(O)C(C)O1.Cl (stereo unspecified) (library stock concentration (final ~1000-fold dilution): 10 mM) , thanks.
OUTPUT: 0.191

INPUT: Need NF-kB SEAP reporter activity of CC(C)N(CCC(=O)c1ccc2ccccc2c1)Cc1ccccc1.Cl (library stock concentration (final ~1000-fold dilution): 10 mM) , thanks.
OUTPUT: 0.518

----------
Tested on: RAW-Dual
method: NF-kB SEAP reporter activity, fold change vs agonist alone; cytotoxicity flag (confluency mask): not cytotoxic; higher = enhanced NF-kB activity
condition: agonist: LPS (TLR4) 0.1 ug/mL
The full ranking holds about 2,900 compounds; the median of “NF-kB SEAP reporter activity, fold change vs agonist alone” is about 0.99, and the highest 2% start at about 2.6. The sample as a whole holds a higher share of the highest values than the screen did.
measurement.label: NF-kB SEAP reporter activity
# respond with the number and nothing more

O=C(NC1=CC(=O)[C@@H]2O[C@@H]2[C@@H]1O)c1ccccc1O (library stock concentration (final ~1000-fold dilution): 10 mM)    0.954
COC(C)Cn1c(=O)n(C)c2cnc3ccc(-c4cncc(C(C)(C)O)c4)cc3c21 (stereo not given) (library stock concentration (final ~1000-fold dilution): 10 mM)    1.84
CCC1OC(=O)C(C)C(OC2CC(C)(OC)C(O)C(C)O2)C(C)C(OC2OC(C)CC(N(C)C)C2O)C(C)(O)CC(C)CN(C)C(C)C(O)C1(C)O.O.O (stereo not given) (library stock concentration (final ~1000-fold dilution): 10 mM)    1.49
O=C(O)CN(CC(=O)O)c1ccccc1OCCOc1ccccc1N(CC(=O)O)CC(=O)O (library stock concentration (final ~1000-fold dilution): 10 mM)    1

INPUT: Need NF-kB SEAP reporter activity of COc1cc2c(cc1OC)CC(=O)N(CCCN(C)CC1Cc3cc(OC)c(OC)cc31)CC2.Cl (stereo not given) (library stock concentration (final ~1000-fold dilution): 10 mM) , thanks.
OUTPUT: 1.3

INPUT: Need NF-kB SEAP reporter activity of NC(CSCCCO)C(=O)O (stereo not given) (library stock concentration (final ~1000-fold dilution): 10 mM water) , thanks.
OUTPUT: 1.11

INPUT: Need NF-kB SEAP reporter activity of CC(C)c1nc(N(C)S(C)(=O)=O)nc(-c2ccc(F)cc2)c1C=CC(O)CC(O)CC(=O)O (stereo not given) (library stock concentration (final ~1000-fold dilution): 10 mM) , thanks.
OUTPUT: 1.43

INPUT: Need NF-kB SEAP reporter activity of COC1/C=C/OC2(C)Oc3c(C)c(O)c4c(O)c(c(/C=N/N5CCN(C6CCCC6)CC5)c(O)c4c3C2=O)NC(=O)/C(C)=C/C=C/C(C)C(O)C(C)C(O)C(C)C(OC(C)=O)C1C (stereo not given) (library stock concentration (final ~1000-fold dilution): 10 mM) , thanks.
OUTPUT: 1.56

INPUT: Need NF-kB SEAP reporter activity of Nc1ccccc1NC(=O)c1cnccn1 (library stock concentration (final ~1000-fold dilution): 10 mM) , thanks.
OUTPUT: 1.4

INPUT: Need NF-kB SEAP reporter activity of CC(C)CC(=O)NC(C(=O)NC(C(=O)NC(CC(C)C)C(O)CC(=O)NC(C)C(=O)NC(CC(C)C)C(O)CC(=O)O)C(C)C)C(C)C (stereo not given) (library stock concentration (final ~1000-fold dilution): 10 mM) , thanks.
OUTPUT: 0.983

----------
Tested on: RAW-Dual
method: NF-kB SEAP reporter activity, fold change vs agonist alone; cytotoxicity flag (confluency mask): not cytotoxic; higher = enhanced NF-kB activity
condition: agonist: ODN 1826 (TLR9) 0.5 ug/mL
The full ranking holds about 2,900 compounds; the median of “NF-kB SEAP reporter activity, fold change vs agonist alone” is about 0.99, and the highest 2% start at about 2.6. The entries come from a sample that favours the highest values as a whole.
measurement.label: NF-kB SEAP reporter activity
# respond with the number and nothing more

Guide cases for NF-kB SEAP reporter activity, answers given:
COc1cc(C=CC(=O)CC(=O)C=Cc2ccc(O)c(OC)c2)ccc1O (library stock concentration (final ~1000-fold dilution): 100 mM)    0.197
COC(=O)C1=C(C)NC(C)=C(C(=O)OC2CCCN(Cc3ccccc3)C2)C1c1cccc([N+](=O)[O-])c1.Cl (configuration not stated) (library stock concentration (final ~1000-fold dilution): 10 mM)    0.381
Cl.NCc1c[nH]c(=S)n1C1CCc2c(F)cc(F)cc2C1 (configuration not stated) (library stock concentration (final ~1000-fold dilution): 10 mM)    0.895
CCc1ccc(NC(=O)Nc2ccccc2)cc1 (library stock concentration (final ~1000-fold dilution): 10 mM)    0.823
Fc1ccc2[nH]ccc2c1-c1nc(N2CCOCC2)c2sc(CN3CCN(CC4CC4)CC3)cc2n1 (library stock concentration (final ~1000-fold dilution): 10 mM)    0.272

INPUT: Notebook: pull reported NF-kB SEAP reporter activity for RAW-Dual, entry CCOC(=O)C=P(c1ccccc1)(c1ccccc1)c1ccccc1 (library stock concentration (final ~1000-fold dilution): 10 mM)
OUTPUT: 0.875

INPUT: Notebook: pull reported NF-kB SEAP reporter activity for RAW-Dual, entry CCCCCCCCCCCCCCCCCC(=O)O (library stock concentration (final ~1000-fold dilution): 10 mM)
OUTPUT: 1.02

INPUT: Notebook: pull reported NF-kB SEAP reporter activity for RAW-Dual, entry COc1ccc(/C=C\c2cc(OC)c(OC)c(OC)c2)cc1O (library stock concentration (final ~1000-fold dilution): 10 mM)
OUTPUT: 2.84

INPUT: Notebook: pull reported NF-kB SEAP reporter activity for RAW-Dual, entry CCC(C)CC(C)CCCCCCCCC(=O)NC1CC(O)C(NCCN)NC(=O)C2C(O)CCN2C(=O)C(C(O)CCN)NC(=O)C(C(O)C(O)c2ccc(O)cc2)NC(=O)C2CC(O)CN2C(=O)C(C(C)O)NC1=O (configuration not stated) (library stock concentration (final ~1000-fold dilution): 10 mM water)
OUTPUT: 1.08

INPUT: Notebook: pull reported NF-kB SEAP reporter activity for RAW-Dual, entry CNC(=O)c1ccc(-c2cnc3cnc(-c4ccccc4)cn23)cc1 (library stock concentration (final ~1000-fold dilution): 10 mM)
OUTPUT: 0.763

INPUT: Notebook: pull reported NF-kB SEAP reporter activity for RAW-Dual, entry CC1CNC(=O)c2cnn3ccc(nc23)NC(C)c2cc(F)ccc2O1 (configuration not stated) (library stock concentration (final ~1000-fold dilution): 10 mM)
OUTPUT: 0.9

INPUT: Notebook: pull reported NF-kB SEAP reporter activity for RAW-Dual, entry Cc1ccc(NC(=O)c2ccc(CN3CCN(C)CC3)cc2)cc1Nc1nccc(-c2cccnc2)n1 (library stock concentration (final ~1000-fold dilution): 10 mM)
OUTPUT: 0.212
